Here, each record is paired with measured cytotoxicity at 70.5 h data.
experiment: Human HepG2 cell viability assay in 384 well format; type: toxicity, cell-based; set-up: dose 125 nL, time 70.5 hour; concentration not given beside the values; conditions: HepG2 cells, read-out: Inhibition

COMPOUND	cytotoxicity at 70.5 h / %
Cn1cc(Cl)cc1C(=O)N1CCCN(Cc2cccs2)CC1	4.57
O=C(CCc1nc(Cl)n[nH]1)N1CCC2(CCCN(CC3CCC3)C2=O)C1 (configuration not stated)	-7.56
O=C(CS(=O)(=O)Cc1cc(Cl)c2c(c1)OCCCO2)NCC1CC1	-3.53
CN(C)S(=O)(=O)N1CCC(Oc2cnccn2)CC1	-0.386
CC(C)CN(C(=O)COc1ccc(C(N)=O)cc1)C1CCN(C)CC1	-4.39
Cn1cnnc1CNC(=O)C1CCCN(Cc2ccccc2)C1 (configuration not stated)	0.292
Cc1nc(=O)c2ccccc2n1C1=CCN(CC(=O)N2CCCC2)CC1	-1.43
NS(=O)(=O)c1ccc(CNCC(=O)NCc2ccc(Cl)cc2Cl)cc1	-8.64
Cc1ccc(C2CSCCN2C(=O)c2ccoc2C)o1 (configuration not stated)	-8.94
Cn1cc(CN(Cc2ccccc2)CC(O)c2cccs2)cn1 (configuration not stated)	-8.92
Cc1nc(C)c(CN2CCOC[C@H](Oc3cnccn3)C2)s1	-7.51
O=C(Nc1nncs1)N1CCCN(C2CCCC2)CC1	18.5
COCC(=O)Nc1nnc2n(Cc3cccc(OC)c3)[nH]c(C)c1-2	-5.86
Cc1ccccc1OC1CCN(CC(=O)Nc2cnn(C)c2C)CC1	-2.68
CCc1nccn1C1CCCN(C(=O)c2c(C)nsc2NC)C1 (configuration not stated)	-7.79
Cc1cc(C)n(CC2CCCN2CC(=O)Nc2cc(C(C)C)no2)n1 (configuration not stated)	14.2
CC(=O)N1CCCCC12CCCN(Cc1ccco1)C2 (configuration not stated)	-14.9
CNS(=O)(=O)CC(=O)N1CC2(CCCC2)c2c(F)cccc21	0.789
COC[C@H]1CCC[C@]12CN(Cc1cccc(C)n1)CCO2	63.1
CCC(CC)CNC(=O)N(C)C(C)c1ccccn1 (configuration not stated)	12.3
Cc1cccc(CN2CCCC3(CCN(CC4CCCO4)CC3)C2)n1 (configuration not stated)	-11.4
CC(O)c1cccc(N2CCC3(CCC(=O)N(CC(N)=O)C3)CC2)n1 (configuration not stated)	-11.2
Cc1ccccc1CC1(CO)CCCN(c2ncncc2C(C)C)C1 (configuration not stated)	5.34
Cc1nccn1CCC1CCCCN1Cc1ccc(N(C)C)nc1 (configuration not stated)	-10.4
CC(C)OC(=O)CC(NC(=O)CCn1cccn1)c1ccccc1 (configuration not stated)	5.59
CCC(CC)S(=O)(=O)NC(=O)c1ccc2c(c1)ncn2C	-0.423
Cc1ccc(CN2CC[C@H](O)[C@@H](n3ccc(=O)[nH]c3=O)CC2)cc1	-2.58
COc1nccnc1N1CCC2(CC1)[C@H](O)C[C@@H]2OCCN(C)C	-7.06
COCCCN(CCOC)Cc1nc2c(cnn2C)c(=O)[nH]1	-12.6
NC(=O)C1CCN(C(=O)Cc2cnc(-c3c(Cl)cccc3Cl)s2)CC1	-13.5
Cc1nnc([C@@H]2C[C@H]3CN(C(=O)c4c(C)noc4C)C[C@H]3O2)[nH]1	-11.6
CCN1CC(C(=O)NCc2ccnc(-n3cccn3)c2)CC1=O (configuration not stated)	-4.01
CNC(=O)[C@@H](c1ccccc1OC)N1CCC[C@H]1C(=O)N1CCC1	-5.76
Cn1cc(CCNCc2cc(Br)c3c(c2)OCO3)cn1	23.7
CCn1cc(CN2CCC(NS(C)(=O)=O)CC2)cc1C#N	-3.22
O=C(c1cc(Cl)ccc1OC1CCN(C2CCCC2)CC1)N1CC(O)C1	11.8
COc1ccc2c(c1)c(C(=O)Nc1cc(C)n(C)n1)cn2C(C)C	-0.21
c1ccc(OCc2noc(CN3CCC(N4CCSCC4)CC3)n2)cc1	-5.9
N#Cc1ccnc(N2CCN(C(=O)Cc3ccc4c(c3)CCO4)CC2)c1	-7.76
CCc1nc2c(c(C)c(C)n2Cc2cccnc2)c(N)c1C	0.896
c1cnn(CC2CN(c3ncnc4c3CCC4)CCO2)c1 (configuration not stated)	-9.89
O=C(Nc1ccnc2ccnn12)c1ccc(N2CCC(O)CC2)cc1	6.12
CCCSc1ccccc1NC(=O)N1CCN(C(=O)c2ccc[nH]2)CC1	-1.4
COc1ccccc1CN1CCCCC1c1n[nH]cc1-c1cc(C)no1 (configuration not stated)	-6.18
Cc1ccc2c(c1)c(CNC(=O)C1CCN(C(=O)C3CC3)CC1)nn2C	-3.75
O=C(N1CCCC1)N1Cc2nccn2CC(COc2cccnc2)C1 (configuration not stated)	-9.49
CCN(CC)C1CCN(C(=O)NCc2cccc(NC(C)=O)c2)C1 (configuration not stated)	-6.18

----------
assay: Human HepG2 cell viability assay in 384 well format; assay type: toxicity, cell-based; design: dose 125 nL, time 70.5 hour; concentration not given beside the values; details: HepG2 cells, read-out: Inhibition
MEASUREMENT NAME: cytotoxicity at 70.5 h (%)

MOLECULE	READOUT VALUE
Cc1cc(C)c(C(=O)N(C)CCN(C)C(=O)OC(C)(C)C)[nH]1	6.57
O=C1COC2(CCN(Cc3ccco3)CC2)CN1	-7.36
O=C(CSC1CCc2ccccc2NC1=O)NC1CC1 (configuration not stated)	-2.66
O=C(c1cccs1)N1C[C@H]2CC[C@@]3(N=C(c4ccccc4)NC3=O)[C@H]2C1	-4.38
CCN(C(c1cccnc1)c1ccc(F)c(F)c1)S(C)(=O)=O (configuration not stated)	-4.7
CCN(C)S(=O)(=O)NCC1CCN(Cc2ccccc2F)C1 (configuration not stated)	-10.5
CC(=O)NCCNC(=O)c1ccc(C)c(-n2cccc2)c1	-10.2
NC(=O)CCSc1ccccc1NCc1ccc(Cl)s1	-95
Cc1cc(C2CCCN2C(=O)c2cc3c(s2)CCC3)on1 (configuration not stated)	-16.3
Cc1ccc(NC2CCN(C(=O)c3cccn3C)CC2)nn1	32.5
CN(Cc1ccccc1)C(=O)CN1CCOC(Cn2cncn2)C1 (configuration not stated)	-6.53
O=C(O)COCC(=O)NC1CC2(CCCCC2)Oc2ccccc21 (configuration not stated)	18.3

----------
Here, each record is paired with measured cytotoxicity at 70.5 h data.
assay: Human HepG2 cell viability assay in 384 well format; type: toxicity, cell-based; parameters: dose 125 nL, time 70.5 hour; concentration not given beside the values; settings: HepG2 cells, read-out: Inhibition

COMPOUND	cytotoxicity at 70.5 h / %
O=C(c1cnccn1)N1CCCC2(CCCN2Cc2cccnc2)C1 (stereo unspecified)	-1.76
O=C(NCC1CCOCC1)c1cc(-c2ccc3c(c2)CCO3)n[nH]1	17.3
CCC(CNC1CCN(C(C)=O)CC1)Oc1cccc(C)c1 (stereo unspecified)	-6.04
OCc1ccc(CN(CCCn2ccnc2)Cc2cccnc2)o1	-8.65
Cc1n[nH]c2c1C(c1ccc(Cl)cc1)SCC(=O)N2 (stereo unspecified)	10.6
CN(C)c1nccc(-c2cnc(N(C)C)[nH]c2=O)n1	-5.37

----------
assay: Human HepG2 cell viability assay in 384 well format; format: toxicity, cell-based; design: dose 125 nL, time 70.5 hour; concentration not given beside the values; conditions: HepG2 cells, read-out: Inhibition

MOLECULE	cytotoxicity at 70.5 h [%]
CN(Cc1ccc([S+](C)[O-])cc1)c1cncc(Br)c1 (stereo unspecified)	-23.7
Cc1ccc(CN(C)C(=O)CN2CCCC(Cn3cncn3)C2)o1 (stereo unspecified)	-5.76
CS(=O)(=O)NCCC(=O)NC1CCc2nccn2C1 (stereo unspecified)	-4.75
Cc1noc(-c2ccc(N3CCCC(C(=O)c4nccn4C)C3)nc2)n1 (stereo unspecified)	-8.49
CC(C)Cn1cnc2ccc(NC(=O)CCCn3cccn3)cc2c1=O	-2.92
CC(C)C(NC(=O)c1ccccc1F)C(=O)N1CCC2(CC1)OCCO2 (stereo unspecified)	-1.01
CN(C)Cc1nnc(C(=O)N(C)Cc2ccc(C(F)(F)F)cc2)o1	-1.19
c1cncc(CN2CCC3(CC2)CC(c2cccnc2)CO3)c1 (stereo unspecified)	-6.23
Cc1cc(NC(=O)N2CCN(C)CC2C)n(Cc2ccccc2)n1 (stereo unspecified)	-9.75
COCCN1CCCn2c(nc(CNC(=O)COC)cc2=O)C1	-2.45
COc1ccc2cc(CN(C)CCN3CCCCC3=O)c(=O)[nH]c2c1	-12.2

----------
Here, each record is paired with measured cytotoxicity at 70.5 h data.
test: Human HepG2 cell viability assay in 384 well format; type: toxicity, cell-based; set-up: dose 125 nL, time 70.5 hour; concentration not given beside the values; conditions: HepG2 cells, read-out: Inhibition
MEASUREMENT NAME: cytotoxicity at 70.5 h (%)

COMPOUND	READOUT VALUE
FC(F)(F)Oc1ccc(-c2c[nH]c([C@@H]3COCCN3)n2)cc1	-3.01
O=C(NCC1CCN(CCc2ccccc2)C1)NCC1(O)CCC1 (stereo unspecified)	-3.77
CC(C)OCCCNC(=O)C1CC(=O)N(c2n[nH]c3cccc(F)c23)C1 (stereo unspecified)	-23.7
CCn1ccnc1CN1CCN(C(C)C(=O)NCC(F)(F)F)CC1 (stereo unspecified)	10
N#Cc1ccc(C(=O)N2C[C@H](OCc3cccnc3)[C@H]3COC[C@H]32)cc1	3.47
CCN(Cc1ccoc1)C(=O)NC1CCN(CC=C(C)C)CC1	6.72
